System: UACC-62 melanoma
procedure summary: NCI tumour cell line growth inhibition, 48 h
attribute measured: TGI

O=C1/C(=C/C=C/c2ccccc2)CCC1CNc1ccccc1 (stereo unspecified)
> 100 µM
C#CC1(O)C(COP(=O)(O)OCC(COP(=O)(O)OCC2OC(n3cc(F)c(=O)[nH]c3=O)CC2O)OCCCCCCCCCCCCCCCCCC)OC(n2ccc(N)nc2=O)C1O (stereo unspecified)
2.69 µM
COc1ccc(-c2c(C(C)=O)c(-c3ccccc3)n(C3OC(CO)C(O)C(O)C3O)c(=S)c2C#N)cc1 (stereo unspecified)
> 100 µM

Bench note, UACC-62 melanoma: entry Cc1ccc(-n2[nH]nc(C(N)=O)c2=O)cc1 , its TGI = > 100 µM

Form field, TGI with UACC-62 melanoma, item CC(=O)Oc1c(C)c(-c2ccccc2)c(C)c(-c2ccccc2)c1C(=S)c1ccccc1 : > 100 µM

Lab note: molecule Nc1ncnc2c1ncn2C1C=C(CO)C(O)C1O (stereo unspecified) tested on UACC-62 melanoma; recorded TGI was > 57.5 µM
